- test method notes: MTT assay, cytotoxicity test on HaCaT cells
- Format: cell-based, human
- study conditions: human, hacat cells, percentage of untreated cells (NT), concentrations from 0.031 to 0.004 % w/v, read-out: Cell viability
measure name: viability at 24 h

Prompt: I would be grateful if you could share the reported viability at 24 h for C=C(C)[C@@H]1CCC(C)=C[C@H]1c1c(O)cc(CCCCC)cc1O [CBD, cannabidiol] .
Response: ~80%
